Biological target: MIF-CD74 Binding (biotin-labeled recombinant human MIF, recombinant human MIF receptor CD74 ectodomain) (Homo sapiens)
Assay: MIF-CD74 binding (capture) assay
Conditions: Table 20; read-out: CD74 IC50
EXPERIMENTAL READOUT: IC50 (µM)
Enter your answer as a number in µM; do not include the unit.

Would you mind telling me what IC50 value was observed for Oc1ccc(-c2cn(Cc3ccccn3)nn2)cc1 ?
300

----------
Molecular target: MIF-CD74 Binding (biotin-labeled recombinant human MIF, recombinant human MIF receptor CD74 ectodomain) (Homo sapiens, UniProt P14174)
Sequence (P14174 2-115 limits assumed): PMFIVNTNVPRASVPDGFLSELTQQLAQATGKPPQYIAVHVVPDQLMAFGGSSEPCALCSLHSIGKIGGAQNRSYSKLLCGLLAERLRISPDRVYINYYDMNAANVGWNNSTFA
Assay: MIF-CD74 binding (capture) assay
Conditions: Table 6, data cell c8; number before @
# label = YES if CD74 % MaxInhib >= 10% else NO

Worked examples, 5 molecules total:
RECORD SMILES: O=c1c2cc(F)ccc2sn1-c1cccc(O)c1
CLASS ASSIGNMENT: YES

RECORD SMILES: O=c1c2ccc(F)cc2sn1-c1cccc(Cl)c1
CLASS ASSIGNMENT: YES

RECORD SMILES: O=c1c2ccc(F)cc2sn1-c1cccc(CO)c1
CLASS ASSIGNMENT: NO

RECORD SMILES: O=c1c2cc([N+](=O)[O-])ccc2sn1-c1ccc(Cl)cc1
CLASS ASSIGNMENT: YES

RECORD SMILES: O=c1c2cc(F)ccc2sn1-c1ccc(Cl)cc1
CLASS ASSIGNMENT: NO

Could you tell me if the measured CD74 % MaxInhib of CC(=O)OCc1cccc(-n2sc3cc(F)ccc3c2=O)c1 reaches 10% or more?
YES

Could you tell me if the measured CD74 % MaxInhib of O=c1c2cc(C(F)(F)F)ccc2sn1-c1ccc(Cl)cc1 reaches 10% or more?
YES

Could you tell me if the measured CD74 % MaxInhib of O=c1c2ccc(F)c(F)c2sn1-c1ccc(Cl)cc1 reaches 10% or more?
YES

Could you tell me if the measured CD74 % MaxInhib of N#Cc1ccc2c(=O)n(-c3ccc(Cl)cc3)sc2c1 reaches 10% or more?
YES

Could you tell me if the measured CD74 % MaxInhib of COc1ccccc1-n1sc2ccc(Cl)cc2c1=O reaches 10% or more?
NO

Value source: patent US10202343B2
